- procedure.summary: inhibitors of TNFa-induced VCAM-1 surface display, cell-based, plate reader, pooled HUVEC, TNFa stimulus (AID 454)
- condition.details: HUVEC TNFa-induced VCAM-1 surface immunofluorescence,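 compound tested at 5 µM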
Screen size: about 10,000 compounds; about 25 (0.2%) were called active.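 The calls were made as follows: active = compound among top-ranked inhibitors of TNF-induced VCAM-1 adhesion protein staining, with the hit upheld by image or statistical review; inactive = the rest, including hits rejected on review.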 Many of the other results were omitted from the sample, so actives are more common in it than they were.
The reply should be one of these categories: 1.0 (active), 0.0 (inactive)

// query Test call, this compound: `Clc1ccc(C2=Nn3c(nnc3-c3n[nH]c4c3CCC4)SC2)cc1Cl`
// result 1.0

// query Please state the recorded outcome for this compound: `CC(C)(C)C1=Nn2c(nnc2-c2n[nH]c3c2CCC3)SC1`
// result 0.0

// query Recorded call for `O=C(CCSc1nccn1Cc1ccccc1)N1CCOCC1` ?
// result 0.0

// query Please share the test call associated with `Cc1ccc(-c2nc3cnccn3c2Nc2ccc3c(c2)OCO3)o1` .
// result 0.0

// query How was `O=C(c1ccco1)N1CCN(c2c(-c3ccccc3)c3cc(Cl)ccc3[nH]c2=O)CC1` classified in this test?
// result 1.0

// query Recorded test outcome, item `Cc1ccc(-c2cc(C(F)F)nc(N3CCC(C)CC3)n2)cc1`
// result 0.0

###

- procedure.summary: inhibitors of TNFa-induced VCAM-1 surface display, cell-based, plate reader, pooled HUVEC, TNFa stimulus (AID 454)
- condition.details: HUVEC TNFa-induced VCAM-1 surface immunofluorescence,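 compound tested at 5 µM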
Out of some 10,000 compounds screened, about 25 (0.2%) were called active.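 The calls were made as follows: active = compound among top-ranked inhibitors of TNF-induced VCAM-1 adhesion protein staining, with the hit upheld by image or statistical review; inactive = the rest, including hits rejected on review.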 The sample holds actives, similar compounds and a random draw of the others, so the mix is not that of the screen.
Assign a class; possible classes are active, inactive

// query Given Cc1ccc(O)c(-c2cc(C(=O)Nc3ccc(S(=O)(=O)N4CC(C)OC(C)C4)cc3)[nH]n2)c1 (stereo not drawn) , state the outcome it received in this test.
// result inactive

// query Identify the outcome logged in this assay for the compound shown: `CCN(CC)C(=O)c1ccc(O)c(OC)c1`
// result inactive

// query Per the assay record, what outcome was assigned to `COc1cc(/C=C/C(=O)CC(=O)/C=C/c2ccc(O)c(OC)c2)ccc1O` ?
// result active

// query For this compound, state the assay outcome: O=C1CC(N2CCOCC2)C(=O)N1c1ccccc1Cl (stereo not drawn)
// result inactive

// query Which outcome was assigned to `COc1ccc(CNc2oc(-c3cccc4ccccc34)nc2C#N)cc1` in this test?
// result inactive

// query Per the records of this test, what outcome belongs to `O=S1(=O)C=C(Sc2nc3ccccc3s2)c2ccccc21` ?
// result inactive

// query So what was the verdict on `C=C(Cl)COc1ccc2c(C)cc(=O)oc2c1` in this test?
// result inactive

// query // outcome(item) with item = `CCOC(=O)c1[nH]c2ccc(C)cc2c1NC(=O)CN1CCCCC1`
// result inactive

// query For `Cc1ccccc1-c1nc(CN2CCC(C(=O)NCc3cccnc3)CC2)c(C)o1` , which call appears in the assay record?
// result inactive

// query // return assay outcome for CCc1ccc2[nH]c(=O)c(C(c3nnnn3CC3CCCO3)N3CCCc4ccccc43)cc2c1 (stereo not drawn)
// result active

// query Write down the call the test reported for this compound. Item: `COc1ccc(CCNc2nc(N3CCOCC3)nc(N3CCOCC3)n2)cc1OC`
// result inactive

// query Test call for this compound, please: `CO[C@H]1C[C@@H]2CC[C@@H](C)[C@@](O)(O2)C(=O)C(=O)N2CCCC[C@H]2C(=O)O[C@H]([C@H](C)C[C@@H]2CC[C@@H](O)[C@H](OC)C2)CC(=O)[C@H](C)C=C(C)[C@@H](O)[C@@H](OC)C(=O)[C@H](C)C[C@H](C)C=CC=CC=C1C`
// result active

// query # fetch the recorded call for `CCOc1ccccc1NC(=O)CCN1CCN(S(=O)(=O)c2ccc(Br)cc2)CC1` here
// result inactive

// query Assay outcome for `O=c1[nH]c2sc3c(c2c2nncn12)CCCC3` : what was it?
// result inactive

// query How was `Cc1cc(C)nc(NS(=O)(=O)c2ccc(NC(=O)Cn3c(=O)oc4ccccc43)cc2)n1` classified in this test?
// result inactive

// query Test call, this compound: CCC1CCCCN1S(=O)(=O)c1ccc(C(=O)Nc2nnc(-c3cccs3)o2)cc1 (stereo not drawn)
// result inactive

// query Answer briefly: the call reported for `COc1ccc(C(=O)Cn2nnc(-c3cccs3)n2)cc1` in this assay.
// result inactive

// query Record request — test call for `COc1cc(C2Nc3cccc4cccc(c34)N2)cc(OC)c1O`
// result active

// query Each compound tested received a call. Report the one for `COCCCNC(=O)CCn1c(=O)c2ccccc2n(CC(=O)Nc2ccc(C)cc2C)c1=O` .
// result inactive

// query For `COc1ccc(CN2C(=O)[C@@H]3C(c4ccc(F)cc4)=NO[C@@H]3C2=O)cc1` , what call appears in the results of this test?
// result inactive

// query Given `S=c1[nH]nc(-c2ccco2)n1-c1cccc2ccccc12` , state the outcome it received in this test.
// result inactive

// query For CCC1CCCCN1S(=O)(=O)c1ccc(C(=O)Nc2nnc(-c3ccccc3Cl)o2)cc1 (stereo not drawn) , which call appears in the assay record?
// result inactive

// query Short answer needed: outcome of this test for `Oc1ccc(Nc2nc(-c3ccc(O)cc3)cs2)cc1` ?
// result active

// query Could you kindly confirm the outcome this assay logged for CCC(C(=O)NC(C)CCc1ccco1)n1nc(C)n2c(cc3occc32)c1=O (stereo not drawn) ?
// result inactive

// query GET /call?item= CCOc1cc(C2Nc3ccccc3C(=O)N2c2ccccc2OC)ccc1O (stereo not drawn) returns the recorded outcome of this test.
// result inactive

// query Hi, sorry to bother you, what did the test record for `O=S1(=O)C=C(Sc2nnc(-c3ccccc3)o2)c2ccccc21` ?
// result inactive

// query Recorded call for `O=C(NC1CC1)c1cccc(Nc2ccc(-c3ccc4c(c3)OCCO4)nn2)c1` ?
// result inactive

// query Tell me the recorded outcome of this test for `O=S(=O)(Nn1cnnc1)c1ccccc1Cl` .
// result inactive

// query Recorded test outcome, item CCOC(=O)c1ccccc1NC1CC(=O)N(c2ccccc2C)C1=O (stereo not drawn)
// result inactive

// query Look up the recorded call for `Cc1nnc(SC(=O)N2c3ccccc3Sc3ccccc32)s1` in this test.
// result active

// query Outcome? Cc1ccc(SC(C)c2nc(-c3ccccc3)no2)cc1 (stereo not drawn)
// result inactive

// query Answer briefly: the call reported for `CC(=O)Nc1nc(C)c(-c2csc(Nc3ccc(O)cc3)n2)s1` in this assay.
// result inactive

// query Call for entry CC(=O)Oc1ccc(CCC(C)OC(C)=O)cc1 (stereo not drawn) :
// result inactive

// query Give the logged outcome of this assay for the following compound: `CC1(C)Cc2c(sc3c2c(=N)n(Cc2ccco2)c(=O)n3Cc2ccccc2)CO1`
// result inactive

// query Just curious, what result did `O=S(=O)(Cc1ccc(Cl)cc1)Nc1ccc2c(c1)OCO2` get here?
// result inactive

// query How did this test come out for `O=C(Cn1cc2c(n1)CCCCC2)N1CCc2ccccc21` ?
// result inactive

// query What outcome does the record of this test show for `COc1ccc(N(CC(=O)Nc2cc(C)ccc2C)S(=O)(=O)c2c(C)nn(C)c2C)cc1` ?
// result inactive

// query // param item: `Clc1ccc(Cl)c(-c2nn3c(Cn4cnc5ccccc54)nnc3s2)c1` ; yields the recorded call
// result inactive

// query Status in this test for `CN(c1ccc(OCc2nnc(-c3ccccc3)o2)cc1)S(=O)(=O)c1ccccc1` ?
// result inactive

// query Recorded test outcome, item `Cc1nnc(SCC(=O)NCc2ccccc2)s1`
// result inactive

// query Identify the outcome logged in this assay for the compound shown: `O=C(O)/C=C/c1ccc(O)c(O)c1`
// result inactive

// query Any idea what this test logged for CCOc1cc(-c2nc3ccccn3c2NCC2CCCO2)ccc1O (stereo not drawn) ?
// result inactive

// query Record request — test call for `O=C(Nc1nc2c(s1)CCc1ccccc1-2)c1cccs1`
// result inactive
